Origin of the recorded values: patent US7601686B2

assayed system: HCV NS3/4A protease complex, BMS strain (UniProt P27958, species not given/STRAIN_BMS)
Construct: DNA encoding the recombinant HCV NS3/4A protease complex (amino acids 1027 to 1711) for these strains [H77 and J4L6S]; fused on or other part: For the H77 and J4L6S constructs, a three-lysine solubilising tail at the NS4A C-terminus and a Ni-NTA-purifiable tag from pET21b
Sequence (P27958 1027-1657, stated change not applied, one chain of several): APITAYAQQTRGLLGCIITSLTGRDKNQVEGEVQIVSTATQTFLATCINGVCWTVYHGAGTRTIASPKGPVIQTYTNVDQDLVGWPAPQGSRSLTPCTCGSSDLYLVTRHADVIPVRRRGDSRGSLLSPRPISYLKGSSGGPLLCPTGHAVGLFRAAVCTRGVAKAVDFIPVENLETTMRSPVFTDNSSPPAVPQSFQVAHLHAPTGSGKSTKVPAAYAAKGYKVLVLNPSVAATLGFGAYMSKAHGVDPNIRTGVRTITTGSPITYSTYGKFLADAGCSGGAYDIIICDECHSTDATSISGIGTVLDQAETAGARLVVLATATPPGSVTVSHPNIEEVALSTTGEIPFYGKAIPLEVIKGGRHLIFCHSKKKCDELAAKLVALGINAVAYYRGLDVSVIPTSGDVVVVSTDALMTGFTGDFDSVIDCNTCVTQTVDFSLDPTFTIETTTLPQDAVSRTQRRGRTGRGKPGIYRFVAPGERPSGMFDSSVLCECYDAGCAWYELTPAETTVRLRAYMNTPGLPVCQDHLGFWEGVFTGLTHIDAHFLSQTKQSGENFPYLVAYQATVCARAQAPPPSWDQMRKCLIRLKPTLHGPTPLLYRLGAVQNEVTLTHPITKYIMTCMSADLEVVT
assay details: FRET peptide assay to monitor HCV NS3/4A proteolytic activity (BMS strain)
Type: biochemical, Hepatitis C virus (genotype 1a)
condition notes: read-out: IC 50 Range; NS3/4A BMS strain, enzyme assay
measured metric: IC50

// known answers, use as guide
IC50 in this record for C=CC1CC1(NC(=O)[C@@H]1C[C@@H](NC(=O)n2c(=O)oc3ccccc32)CN1C(=O)[C@@H](NC(=O)CC1CC1)C(C)(C)C)C(=O)NS(=O)(=O)C1CC1 (some centres unmarked) [Compound 53] : < 150 nM

Input C=CC1CC1(NC(=O)[C@@H]1C[C@@H](NC(=O)c2cn(C)c3ccccc23)CN1C(=O)[C@@H](NC(=O)CC1CC1)C(C)(C)C)C(=O)NS(=O)(=O)C1CC1 (some centres unmarked) [Compound 19] . Output IC50: < 150 nM

IC50 for C=CC1CC1(NC(=O)[C@@H]1C[C@@H](NC(=S)Nc2cccc3ccccc23)CN1C(=O)[C@@H](NC(=O)OC(C)(C)C)C(C)(C)C)C(=O)NS(=O)(=O)C1CC1 (some centres unmarked) [Compound 46] is 150 to 15000 nM

IC50 recorded for this molecule, C=CC1CC1(NC(=O)[C@@H]1C[C@@H](NC(=O)c2cc(-c3ccccc3)nc3ccccc23)CN1C(=O)[C@@H](NC(=O)CC1CC1)C(C)(C)C)C(=O)NS(=O)(=O)C1CC1 (some centres unmarked) [Compound 9] , is < 150 nM

IC50 measured on C=CC1CC1(NC(=O)[C@@H]1C[C@@H](NC(=O)OCC2c3ccccc3-c3ccccc32)CN1C(=O)[C@@H](NC(=O)OC(C)(C)C)C(C)(C)C)C(=O)NS(=O)(=O)C1CC1 (mixture of isomers) [Compound 5] = 150 to 15000 nM

C=CC1CC1(NC(=O)[C@@H]1C[C@@H](NC(=O)c2ccccc2OC)CN1C(=O)[C@@H](NC(=O)CC1CC1)C(C)(C)C)C(=O)NS(=O)(=O)C1CC1 (some centres unmarked) [Compound 35] has a reported IC50 of 150 to 15000 nM

***
Documented IC50 of C=CC1CC1(NC(=O)[C@@H]1C[C@@H](NC(=O)n2ccc3ccccc32)CN1C(=O)[C@@H](NC(=O)CC1CC1)C(C)(C)C)C(=O)NS(=O)(=O)C1CC1 (some centres unmarked) [Compound 51] : < 150 nM

Entry C=CC1CC1(NC(=O)[C@@H]1C[C@@H](N2C(=O)c3ccccc3C2=O)CN1C(=O)[C@@H](NC(=O)CC1CC1)C(C)(C)C)C(=O)NS(=O)(=O)C1CC1 (some centres unmarked) [Compound 58] , IC50 reported as 150 to 15000 nM

The value of IC50 measured for the molecule C=CC1CC1(NC(=O)[C@@H]1C[C@@H](NC(=O)OC2=NCc3ccccc32)CN1C(=O)[C@@H](NC(=O)CC1CC1)C(C)(C)C)C(=O)NS(=O)(=O)C1CC1 (some centres unmarked) [Compound 52] turned out to be < 150 nM

Given item C=CC1CC1(NC(=O)C1CC(NC(=O)c2ccc3ccccc3[n+]2[O-])CN1C(=O)C(NC(=O)CC1CC1)C(C)(C)C)C(=O)NS(=O)(=O)C1CC1 (centres unmarked) [Compound 34] , the value recorded as its IC50 is < 150 nM

C=CC1CC1(NC(=O)C1CC(NC(=O)c2cccc[n+]2[O-])CN1C(=O)C(NC(=O)CC1CC1)C(C)(C)C)C(=O)NS(=O)(=O)C1CC1 (centres unmarked) [Compound 33] yielded IC50 of 150 to 15000 nM

###

The reader will find reported IC50 values listed item by item below.
assayed system: HCV NS3/4A protease complex, BMS strain (UniProt P27958, species not given/STRAIN_BMS)
Construct: DNA encoding the recombinant HCV NS3/4A protease complex (amino acids 1027 to 1711) for these strains [H77 and J4L6S]; fused on or other part: For the H77 and J4L6S constructs, a three-lysine solubilising tail at the NS4A C-terminus and a Ni-NTA-purifiable tag from pET21b
assay details: FRET peptide assay to monitor HCV NS3/4A proteolytic activity (BMS strain)
Format: biochemical, Hepatitis C virus (genotype 1a)
condition notes: NS3/4A BMS strain, enzyme assay; read-out: IC 50 Range

Past entries and their recorded results:
Noted for C=CC1CC1(NC(=O)[C@@H]1C[C@@H](N(C)C(=O)c2cc(-c3ccccc3)nc3ccccc23)CN1C(=O)[C@@H](NC(=O)OC(C)(C)C)C(C)(C)C)C(=O)NS(=O)(=O)C1CC1 (some centres unmarked) [Compound 42] : its IC50 reads 150 to 15000 nM

The reported IC50 of the compound C=CC1CC1(NC(=O)[C@@H]1C[C@@H](NC(=O)c2ccc3ccccc3n2)CN1C(=O)[C@@H](NC(=O)CC1CC1)C(C)(C)C)C(=O)NS(=O)(=O)C1CC1 (some centres unmarked) [Compound 25] was < 150 nM

IC50 reported for this compound C=CC1CC1(NC(=O)[C@@H]1C[C@@H](NC(=O)c2nccc3ccccc23)CN1C(=O)[C@@H](NC(=O)CC1CC1)C(C)(C)C)C(=O)NS(=O)(=O)C1CC1 (some centres unmarked) [Compound 24] : 150 to 15000 nM

Field IC50 (entry C=CC1CC1(NC(=O)[C@@H]1C[C@@H](NC(=O)c2c(C)nc3ccccn23)CN1C(=O)[C@@H](NC(=O)CC1CC1)C(C)(C)C)C(=O)NS(=O)(=O)C1CC1 (some centres unmarked) [Compound 17] ) reads < 150 nM

Continuing:
Lab note: C=CC1CC1(NC(=O)[C@@H]1C[C@@H](NC(=O)OCC2c3ccccc3-c3ccccc32)CN1C(=O)[C@@H](NC(=O)CC1CC1)C(C)(C)C)C(=O)NS(=O)(=O)C1CC1 (some centres unmarked) [Compound 7] gave IC50 of 150 to 15000 nM

###

assayed system: human neutrophil elastase (HNE) (Homo sapiens)
Construct: purchased Sigma
Sequence (P08246 30-267): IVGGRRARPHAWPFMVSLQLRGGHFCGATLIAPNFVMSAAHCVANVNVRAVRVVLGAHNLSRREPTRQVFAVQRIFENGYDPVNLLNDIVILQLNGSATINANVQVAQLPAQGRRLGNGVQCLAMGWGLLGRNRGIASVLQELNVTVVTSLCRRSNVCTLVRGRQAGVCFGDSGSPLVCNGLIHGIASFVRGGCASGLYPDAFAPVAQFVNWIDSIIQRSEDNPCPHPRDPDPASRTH
assay details: Specificity assay, human neutrophil elastase
Format: biochemical
condition notes: 2 h enzyme-inhibitor pre-incubation; read-out: HLE activity in the specificity assays
pIC50: −log10 of the molar value.
measured metric: pIC50

Record summary for C=CC1CC1(NC(=O)[C@@H]1C[C@@H](NC(=O)c2cc(-c3ccccc3)nc3ccccc23)CN1C(=O)[C@@H](NC(=O)CC1CC1)C(C)(C)C)C(=O)NS(=O)(=O)C1CC1 (stereo partly shown) : reported pIC50 = < 4.00

###

assayed system: HCV NS3/4A protease complex, BMS strain (UniProt P27958, species not given/STRAIN_BMS)
Construct: DNA encoding the recombinant HCV NS3/4A protease complex (amino acids 1027 to 1711) for these strains [H77 and J4L6S]; fused on or other part: For the H77 and J4L6S constructs, a three-lysine solubilising tail at the NS4A C-terminus and a Ni-NTA-purifiable tag from pET21b
assay details: FRET peptide assay to monitor HCV NS3/4A proteolytic activity (BMS strain)
Format: biochemical, Hepatitis C virus (genotype 1a)
condition notes: NS3/4A BMS strain, enzyme assay; read-out: IC 50 Range
measured metric: IC50

IC50 recorded for this compound, C=CC1CC1(NC(=O)[C@@H]1C[C@@H](NC(=O)c2c(C)nc3sccn23)CN1C(=O)[C@@H](NC(=O)CC1CC1)C(C)(C)C)C(=O)NS(=O)(=O)C1CC1 (some centres unmarked) , is < 150 nM

IC50 in this record for C=CC1CC1(NC(=O)[C@@H]1C[C@@H](NC(=O)c2c(OC)cccc2OC)CN1C(=O)[C@@H](NC(=O)CC1CC1)C(C)(C)C)C(=O)NS(=O)(=O)C1CC1 (some centres unmarked) : 150 to 15000 nM

Reported IC50 of C=CC1CC1(NC(=O)[C@@H]1C[C@@H](NC(=O)c2cc3ccccc3n2C)CN1C(=O)[C@@H](NC(=O)CC1CC1)C(C)(C)C)C(=O)NS(=O)(=O)C1CC1 (some centres unmarked) : < 150 nM

The recorded IC50 for entry C=CC1CC1(NC(=O)[C@@H]1C[C@@H](NC(=O)c2c(-c3ccc(Cl)cc3)cn3ccccc23)CN1C(=O)[C@@H](NC(=O)CC1CC1)C(C)(C)C)C(=O)NS(=O)(=O)C1CC1 (some centres unmarked) equals < 150 nM

Please fill in: IC50 reported for C=CC1CC1(NC(=O)[C@@H]1C[C@@H](NC(=O)c2cnc(N3CCCCC3)nc2-c2ccccc2)CN1C(=O)[C@@H](NC(=O)CC1CC1)C(C)(C)C)C(=O)NS(=O)(=O)C1CC1 (some centres unmarked) = 150 to 15000 nM

For C=CC1CC1(NC(=O)[C@@H]1C[C@@H](N2Cc3ccccc3C2)CN1C(=O)[C@@H](NC(=O)C1CC1)C(C)(C)C)C(=O)NS(=O)(=O)C1CC1 (some centres unmarked) the compound record lists IC50 as 150 to 15000 nM

Briefly, IC50 measured for C=CC1CC1(NC(=O)[C@@H]1C[C@@H](NS(=O)(=O)c2cccc3c(N(C)C)cccc23)CN1C(=O)[C@@H](NC(=O)OC(C)(C)C)C(C)(C)C)C(=O)NS(=O)(=O)C1CC1 (some centres unmarked) : 150 to 15000 nM

Data point: C=CC1CC1(NC(=O)[C@@H]1C[C@@H](NC(=O)c2ccncc2)CN1C(=O)[C@@H](NC(=O)CC1CC1)C(C)(C)C)C(=O)NS(=O)(=O)C1CC1 (some centres unmarked) [Compound 14] ; IC50 = 150 to 15000 nM

C=CC1CC1(NC(=O)[C@@H]1C[C@@H](NC(=O)c2ccsc2)CN1C(=O)[C@@H](NC(=O)CC1CC1)C(C)(C)C)C(=O)NS(=O)(=O)C1CC1 (some centres unmarked) has a reported IC50 of 150 to 15000 nM

Entry under test: C=CC1CC1(NC(=O)[C@@H]1C[C@@H](NC(=O)c2sc3ccccc3c2Cl)CN1C(=O)[C@@H](NC(=O)CC1CC1)C(C)(C)C)C(=O)NS(=O)(=O)C1CC1 (single isomer, unassigned) [Compound 3] . Its IC50 was < 150 nM

Further cases:
Kindly note the recorded IC50 for C=CC1CC1(NC(=O)[C@@H]1CC(NC(=O)c2cc(-c3ccccc3)nc3ccccc23)CN1C(=O)[C@@H](NC(=O)OC(C)(C)C)C(C)(C)C)C(=O)NS(=O)(=O)C1CC1 (some centres unmarked) , which is < 150 nM

Item: C=CC1CC1(NC(=O)[C@@H]1C[C@@H](NC(=O)NCc2ccccc2)CN1C(=O)[C@@H](NC(=O)OC(C)(C)C)C(C)(C)C)C(=O)NS(=O)(=O)C1CC1 (some centres unmarked) | IC50: 150 to 15000 nM

Consider C=CC1CC1(NC(=O)[C@@H]1C[C@@H](NC(=O)n2ccc3cccnc32)CN1C(=O)[C@@H](NC(=O)CC1CC1)C(C)(C)C)C(=O)NS(=O)(=O)C1CC1 (some centres unmarked) . Its measured IC50 is < 150 nM

Consider C=CC1CC1(NC(=O)[C@@H]1C[C@@H](NC(=O)c2c(C)nc3ccccn23)CN1C(=O)[C@@H](NC(=O)CC1CC1)C(C)(C)C)C(=O)NS(=O)(=O)C1CC1 (some centres unmarked) [Compound 18] . Its measured IC50 is 150 to 15000 nM

The recorded IC50 for C=CC1CC1(NC(=O)[C@@H]1C[C@@H](NC(=O)c2cccc3cccnc23)CN1C(=O)[C@@H](NC(=O)CC1CC1)C(C)(C)C)C(=O)NS(=O)(=O)C1CC1 (some centres unmarked) is < 150 nM

# IC50 (compound: C=CC1CC1(NC(=O)[C@@H]1C[C@@H](N2CCN(Cc3ccccc3)CC2)CN1C(=O)[C@@H](NC(=O)OC)C(C)(C)C)C(=O)NS(=O)(=O)C1CC1 (some centres unmarked) ) is > 15000 nM

IC50 reading for C=CC1CC1(NC(=O)[C@@H]1C[C@@H](NC(=O)c2coc3ccccc3c2=O)CN1C(=O)[C@@H](NC(=O)CC1CC1)C(C)(C)C)C(=O)NS(=O)(=O)C1CC1 (some centres unmarked) : < 150 nM
